Hello, the source for this data is PubChem BioAssay, in case you need it.

Task for the reader: assign each of the following compounds its reported composite z-score.
Test: small molecules captured by biotinylated probe aFGF2 – biochemical, small-molecule microarray, fluorescence 635/667, stem cell growth factor project, primary screen (AID 1067);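 also: measures binding of biotinylated aFGF2 protein to printed compounds on slides; z-score merges feature fluorescence and signal-to-noise across triplicate slides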
Settings: higher = more signal
Number only, please.

Name the reported composite z-score value associated with the compound `Cc1ccc(S[C@]2(C(=O)NCCCN(C)C)CC(=O)N(C(C)C)[C@@H]2c2ccc(CO)cc2I)cc1`
-0.0954

Name the reported composite z-score value associated with the compound `O=C1c2ccccc2[C@](Cc2ccccc2I)(C(=O)O)[C@H](c2ccc(CO)cc2)N1Cc1ccccc1C(F)(F)F`
-0.21

Name the reported composite z-score value associated with the compound CN1C(=O)C2C=CC(C(O)C(C)(C)C)N(Nc3ccccc3)C2C1=O (configuration not stated)
-0.14

Name the reported composite z-score value associated with the compound CN1C(=O)C2C=CC(C(O)C=Cc3ccc([N+](=O)[O-])cc3)N(N3CCCCC3)C2C1=O (configuration not stated)
0.556

Name the reported composite z-score value associated with the compound `O=C1[C@H]2C=C(Br)[C@H](C[C@@H]2OCCOCCO)[C@@]12CO2`
-0.103

Name the reported composite z-score value associated with the compound CC(c1ccccc1)C(O)C1C=CC2C(=O)N(c3ccccc3)C(=O)C2N1Nc1ccccc1F (configuration not stated)
0.0786

Name the reported composite z-score value associated with the compound `C=CCOC(=O)[C@@H]1[C@H]2C(=O)O[C@H](c3ccccc3)[C@H](c3ccccc3)N2[C@H](c2ccc(OCCOC(=O)[C@H]3C[C@H]4C(=O)N[C@@H](CCCC[N+](C)(C)C)C(=O)N4[C@H]3c3cccc(OCCO)c3)cc2)[C@@]12C(=O)Nc1ccc(I)cc12`
-0.0824

* * *

System: wheat germ agglutinin (Triticum aestivum), Alexa647-labelled
Test: Alexa647-WGA lectin binding to printed small molecules – biochemical, small-molecule microarray, 635/667 nm fluorescence, artefact control for SMM control-protein annotation, profiling panel (AID 1140);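 also: score merges 667 nm feature emission with signal to noise over triplicate slides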
Conditions: WGA-A647 binding, 635 nm fluorescence, higher = more signal
Task for the reader: assign each of the following compounds its reported composite z-score.

Name the reported composite z-score value associated with the compound `C=C(C(=O)CC[C@@H](OC(=O)c1cccnc1)c1ccc(CO)o1)C(C)C`
0.187

Name the reported composite z-score value associated with the compound C=C(C)[C@@H]1CC=C(C(O)C2C=CC3C(=O)N(Cc4ccccc4)C(=O)C3N2n2cnnc2)CC1 (some centres not stated)
1.19

Name the reported composite z-score value associated with the compound `COCCOC(=O)N1C(=O)[C@@]2(c3cc(C#Cc4ccc(OC)cc4)ccc31)[C@H](c1ccc(OCCO)cc1)N1[C@H](c3ccccc3)[C@H](c3ccccc3)OC(=O)[C@H]1[C@@H]2C(=O)N1CCc2cc(OC)c(OC)cc2C1`
-0.12

Name the reported composite z-score value associated with the compound CC(C)(C)OC(=O)CC[C@]1(C(=O)NCC(O)CO)N=C(c2ccc(OCCCO)cc2)O[C@H]1c1ccccc1CN=[N+]=[N-] (some centres not stated)
0.959

Name the reported composite z-score value associated with the compound `NC(=O)NCC#Cc1ccc2c(c1)[C@]1(C(=O)N2)[C@H](c2ccc(O)cc2)N2[C@H](c3ccccc3)[C@H](c3ccccc3)OC(=O)[C@H]2[C@@H]1C(=O)N1CCN(c2ncccn2)CC1`
0.297

Name the reported composite z-score value associated with the compound `[N-]=[N+]=NCc1ccccc1[C@H]1OC(c2ccc(OCCCO)cc2)=N[C@@]1(Cc1ccccc1)C(=O)O`
0.611

Name the reported composite z-score value associated with the compound `C#C[C@H]1Oc2ccccc2S(=O)(=O)N2CCC[C@@H]12`
-0.719
